Target: T1, FZD1 CRD (Homo sapiens, UniProt Q9UP38)
T1 construct: D112-P238; GPI anchor signal (C); expressed in transfected cells; host or cells: CHO cells, lentiviral pLenti-puro
Test: Immunofluorescence of anti-FZD5 Fab binding to CHO cells overexpressing Frizzled CRD
Design: key: −: no binding; +: very weak binder; ++: weak binder; +++: good binder; ++++: very good binder
quantity: Immunofluorescence binding, Frizzled CRD overexpressed on CHO cells: FZD1

Fab-2930: anti-FZD5 Fab with antibody variable region Fv-2930; CDR SEQ ID NOs: 35, 36, 69, 107, 145, 153 (antibody, V domains shown) VH: EVQLVESGGGLVQPGGSLRLSCAASGFNLSYYYIHWVRQAPGKGLEWVASIYPYSGSTSYADSVKGRFTISADTSKNTAYLQMNSLRAEDTAVYYCARGALDYWGQGTLVTVSS VL: DIQMTQSPSSLSASVGDRVTITCRASQSVSSAVAWYQQKPGKAPKLLIYSASSLYSGVPSRFSGSRSGTDFTLTISSLQPEDFATYYCQQWYGPYLITFGQGTKVEIK : −
Fab-2900: anti-FZD5 Fab with antibody variable region Fv-2900; CDR SEQ ID NOs: 35, 36, 39, 78, 115, 153 (antibody, V domains shown) VH: EVQLVESGGGLVQPGGSLRLSCAASGFNLSSYYIHWVRQAPGKGLEWVASISSSSSSTSYADSVKGRFTISADTSKNTAYLQMNSLRAEDTAVYYCARGALDYWGQGTLVTVSS VL: DIQMTQSPSSLSASVGDRVTITCRASQSVSSAVAWYQQKPGKAPKLLIYSASSLYSGVPSRFSGSRSGTDFTLTISSLQPEDFATYYCQQWYSGSSLFTFGQGTKVEIK : −
Fab-2929: anti-FZD5 Fab with antibody variable region Fv-2929; CDR SEQ ID NOs: 35, 36, 68, 106, 144, 162 (antibody, V domains shown) VH: EVQLVESGGGLVQPGGSLRLSCAASGFNISYYYIHWVRQAPGKGLEWVASIYPSSSSTSYADSVKGRFTISADTSKNTAYLQMNSLRAEDTAVYYCARGAMDYWGQGTLVTVSS VL: DIQMTQSPSSLSASVGDRVTITCRASQSVSSAVAWYQQKPGKAPKLLIYSASSLYSGVPSRFSGSRSGTDFTLTISSLQPEDFATYYCQQWYSSYGLITFGQGTKVEIK : −
Fab-2915: anti-FZD5 Fab with antibody variable region Fv-2915; CDR SEQ ID NOs: 35, 36, 54, 93, 130, 166 (antibody, V domains shown) VH: EVQLVESGGGLVQPGGSLRLSCAASGFNIYYYSMHWVRQAPGKGLEWVASIYSSYGYTSYADSVKGRFTISADTSKNTAYLQMNSLRAEDTAVYYCARGYHYYPYYSGLDYWGQGTLVTVSS VL: DIQMTQSPSSLSASVGDRVTITCRASQSVSSAVAWYQQKPGKAPKLLIYSASSLYSGVPSRFSGSRSGTDFTLTISSLQPEDFATYYCQQAYYHSLITFGQGTKVEIK : ++
